# protocol-notes: Dynamic Vapor Sorption (DVS) hygroscopicity
# stated-conditions: at 80% RH, 25° C., measured during 0% RH to 95% RH increase
Counter-ions that a name gives are not always drawn.
Recorded Hygroscopicity by DVS by entry
readout-name: Hygroscopicity by DVS (%)

> print(dat)
                                   compound  value.reported
1  C#CCOc1ccc(/C=C/C(=O)Nc2ccccc2C(=O)[O-])cc1OC.[K+] [Potassium salt]            6.05
2  C#CCOc1ccc(/C=C/C(=O)Nc2ccccc2C(=O)O)cc1OC.NC(CO)(CO)CO [Tris salt]            1.61
3  C#CCOc1ccc(/C=C/C(=O)Nc2ccccc2C(=O)O)cc1OC [Ethanolamine salt]            0.49
4  C#CCOc1ccc(/C=C/C(=O)Nc2ccccc2C(=O)O)cc1OC.CC(C)(C)N [tert-Butylamine (TBA) salt]            1.07

###

# protocol-notes: physchem
# stated-conditions: pH 4.5 aqueous buffer, 37 °C, thermodynamic from solid
readout-name: solubility at 1 h (µg/mL)

> print(dat)
                                   compound       readout.name  value.reported
1  C#CCOc1ccc(/C=C/C(=O)Nc2ccccc2C(=O)O)cc1OC [Free form]  solubility at 1 h              35

###

# protocol-notes: Oral pharmacokinetic study in Sprague-Dawley rats
# stated-conditions: rat, single oral dose 20 mg/kg, plasma
readout-name: AUCExtr

> print(dat)
                                   compound  readout.name  value.reported
1  C#CCOc1ccc(/C=C/C(=O)Nc2ccccc2C(=O)O)cc1OC.NC(CO)(CO)CO [Tris salt]       AUCExtr           1.49%
2  C#CCOc1ccc(/C=C/C(=O)Nc2ccccc2C(=O)O)cc1OC.N [Ammonium salt]       AUCExtr          0.932%
3  C#CCOc1ccc(/C=C/C(=O)Nc2ccccc2C(=O)[O-])cc1OC.[K+] [Potassium salt]       AUCExtr           1.68%
4  C#CCOc1ccc(/C=C/C(=O)Nc2ccccc2C(=O)O)cc1OC.CC(C)(C)N [tert-Butylamine (TBA) salt]       AUCExtr           1.83%

###

# protocol-notes: physchem
# stated-conditions: pH 1.2 aqueous buffer, 37 °C, pH 1.2, simulated gastric fluid, thermodynamic from solid
readout-name: solubility at 1 h

> print(dat)
                                   compound  value.reported
1  C#CCOc1ccc(/C=C/C(=O)Nc2ccccc2C(=O)O)cc1OC [Free form]        10 µg/mL

###

# protocol-notes: Oral pharmacokinetic study in Sprague-Dawley rats
# stated-conditions: rat, single oral dose 20 mg/kg, plasma, mean
readout-name: AUClast (µg·h/mL)

> print(dat)
                                   compound  value.reported
1  C#CCOc1ccc(/C=C/C(=O)Nc2ccccc2C(=O)[O-])cc1OC.[K+] [Potassium salt]          244.45
2  C#CCOc1ccc(/C=C/C(=O)Nc2ccccc2C(=O)O)cc1OC.NC(CO)(CO)CO [Tris salt]         246.642
3  C#CCOc1ccc(/C=C/C(=O)Nc2ccccc2C(=O)O)cc1OC.N [Ammonium salt]         313.832
4  C#CCOc1ccc(/C=C/C(=O)Nc2ccccc2C(=O)O)cc1OC.CC(C)(C)N [tert-Butylamine (TBA) salt]         287.306

###

# protocol-notes: physchem
# stated-conditions: FaSSIF (pH 7.5), 37 °C, pH 7.5, fassif, thermodynamic from solid
readout-name: solubility at 24 h (µg/mL)

> print(dat)
                                   compound  value.reported
1  C#CCOc1ccc(/C=C/C(=O)Nc2ccccc2C(=O)O)cc1OC [Free form]            1500

###

# protocol-notes: physchem
# stated-conditions: FeSSIF (pH 7.8), 37 °C, pH 7.8, fessif, thermodynamic from solid
readout-name: solubility at 1 h (µg/mL)

> print(dat)
                                   molecule       readout.name  value.reported
1  C#CCOc1ccc(/C=C/C(=O)Nc2ccccc2C(=O)O)cc1OC [Free form]  solubility at 1 h             806

###

# protocol-notes: in vivo
# stated-conditions: Sprague-Dawley, rat, in vivo, po, 20 mg/kg, t1/2
Where a name gives a salt, the structure may show the parent alone.
readout-name: half-life

> print(dat)
                                   compound  value.reported
1  C#CCOc1ccc(/C=C/C(=O)Nc2ccccc2C(=O)O)cc1OC [Ethanolamine salt]          4.32 h

###

# protocol-notes: physchem
# stated-conditions: FaSSIF (pH 7.5), 37 °C, pH 7.5, fassif, thermodynamic from solid
readout-name: solubility at 1 h (µg/mL)

> print(dat)
                                   compound       readout.name  unit.name  value.reported
1  C#CCOc1ccc(/C=C/C(=O)Nc2ccccc2C(=O)O)cc1OC [Free form]  solubility at 1 h      µg/mL            1340

###

Recorded Mean concentration (plasma) by entry
# protocol-notes: Oral pharmacokinetic study in Sprague-Dawley rats
# stated-conditions: rat, single oral dose 20 mg/kg, 8 h post dose
readout-name: Mean concentration (plasma)

> print(dat)
                                   compound                 readout.name  value.reported
1  C#CCOc1ccc(/C=C/C(=O)Nc2ccccc2C(=O)[O-])cc1OC.[K+] [Potassium salt]  Mean concentration (plasma)     10850 ng/mL
2  C#CCOc1ccc(/C=C/C(=O)Nc2ccccc2C(=O)O)cc1OC.CC(C)(C)N [tert-Butylamine (TBA) salt]  Mean concentration (plasma)     15433 ng/mL
3  C#CCOc1ccc(/C=C/C(=O)Nc2ccccc2C(=O)O)cc1OC.NC(CO)(CO)CO [Tris salt]  Mean concentration (plasma)     11317 ng/mL
4  C#CCOc1ccc(/C=C/C(=O)Nc2ccccc2C(=O)O)cc1OC.N [Ammonium salt]  Mean concentration (plasma)     14400 ng/mL

###

# protocol-notes: in vivo
# stated-conditions: Sprague-Dawley, rat, in vivo, po, 20 mg/kg
readout-name: bioavailability

> print(dat)
                                   molecule  value.reported
1  C#CCOc1ccc(/C=C/C(=O)Nc2ccccc2C(=O)O)cc1OC [Free form]             35%

###

# protocol-notes: physchem
# stated-conditions: pH 4.5 aqueous buffer, 37 °C, thermodynamic from solid
readout-name: solubility at 24 h (µg/mL)

> print(dat)
                                   compound        readout.name  value.reported
1  C#CCOc1ccc(/C=C/C(=O)Nc2ccccc2C(=O)O)cc1OC [Free form]  solubility at 24 h               6

###

# protocol-notes: Oral pharmacokinetic study in Sprague-Dawley rats
# stated-conditions: rat, single oral dose 20 mg/kg, 0.5 h post dose
readout-name: Mean concentration (plasma) (ng/mL)

> print(dat)
                                   molecule  value.reported
1  C#CCOc1ccc(/C=C/C(=O)Nc2ccccc2C(=O)O)cc1OC.CC(C)(C)N [tert-Butylamine (TBA) salt]           18080
2  C#CCOc1ccc(/C=C/C(=O)Nc2ccccc2C(=O)[O-])cc1OC.[K+] [Potassium salt]           24600
3  C#CCOc1ccc(/C=C/C(=O)Nc2ccccc2C(=O)O)cc1OC.N [Ammonium salt]           32700
4  C#CCOc1ccc(/C=C/C(=O)Nc2ccccc2C(=O)O)cc1OC.NC(CO)(CO)CO [Tris salt]           21300

###

# protocol-notes: Oral pharmacokinetic study in Sprague-Dawley rats
# stated-conditions: rat, single oral dose 20 mg/kg, 24 h post dose
Recorded Mean concentration (plasma) by entry
readout-name: Mean concentration (plasma) (ng/mL)

> print(dat)
                                   molecule                 readout.name  value.reported
1  C#CCOc1ccc(/C=C/C(=O)Nc2ccccc2C(=O)O)cc1OC.NC(CO)(CO)CO [Tris salt]  Mean concentration (plasma)             650
2  C#CCOc1ccc(/C=C/C(=O)Nc2ccccc2C(=O)O)cc1OC.N [Ammonium salt]  Mean concentration (plasma)             575
3  C#CCOc1ccc(/C=C/C(=O)Nc2ccccc2C(=O)O)cc1OC.CC(C)(C)N [tert-Butylamine (TBA) salt]  Mean concentration (plasma)             918
4  C#CCOc1ccc(/C=C/C(=O)Nc2ccccc2C(=O)[O-])cc1OC.[K+] [Potassium salt]  Mean concentration (plasma)             687
